Exercise: state measured Ki for each of the compounds provided.
- TESTED_TARGET: D1 (Homo sapiens)
- Sequence (P21728 whole entry): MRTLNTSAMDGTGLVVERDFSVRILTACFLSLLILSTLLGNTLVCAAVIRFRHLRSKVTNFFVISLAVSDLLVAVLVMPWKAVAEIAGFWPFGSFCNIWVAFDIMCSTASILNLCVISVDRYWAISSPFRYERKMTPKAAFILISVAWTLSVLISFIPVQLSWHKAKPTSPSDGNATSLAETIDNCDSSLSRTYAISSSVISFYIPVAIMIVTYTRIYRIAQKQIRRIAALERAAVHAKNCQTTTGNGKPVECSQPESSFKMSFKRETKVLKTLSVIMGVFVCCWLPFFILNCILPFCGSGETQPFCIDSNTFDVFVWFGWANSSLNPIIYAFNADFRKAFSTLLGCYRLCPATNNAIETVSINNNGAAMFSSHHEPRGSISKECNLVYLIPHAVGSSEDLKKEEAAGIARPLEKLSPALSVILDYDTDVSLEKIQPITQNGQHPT
- METHOD_SUMMARY: Human D1 receptor binding assay ([3H]-SCH23390 competition)
- SETUP_CONDITIONS: Human D1 Receptor Binding, Ki (nM), Geometric mean of 2-4 determinations, a: >=5 determinations, d: single determination
Where a name gives a salt, the structure may show the parent alone.
Record the result as number plus unit.

Ask: Give the measured Ki of Cc1cc(Oc2nccc3occc23)ccc1-n1c(C)nc2cnccc21 .
Result: 68.3 nM

Ask: Check CCCc1noc(COc2cc(Oc3nccc4occc34)ccc2-c2nccnc2C)n1 [Example 182, formate salt] too.
Result: 58 nM

Ask: Also Cc1cc(Oc2nccc3occc23)ccc1-c1c(C)cnc2nccn12 (single isomer, unassigned) [Example 147] ?
Result: 3.6 nM

Ask: What would you report for O=C(NC1CCC1)c1cc(Oc2nccc3occc23)ccc1-c1cccc2nccn12 [Example 46, trifluoroacetate salt] ?
Result: 316 nM

Ask: Now the same for CC(NCc1cc(Oc2nccc3occc23)ccc1-c1cccc2nccn12)c1cncs1 (stereo not shown) [Example 49, trifluoroacetate salt]
Result: 121 nM

Ask: Next entry: CO[C@H]1CCN(c2ncnc(C)c2-c2ccc(Oc3nccc4occc34)cc2C)C1 [Example 202, trifluoroacetate salt]
Result: 114 nM

Ask: Try the compound Cc1cc(Oc2nccc3occc23)ccc1-c1c(C)cccc1C [Example 89, trifluoroacetate salt]
Result: 123 nM

Ask: And then Cc1cc(Oc2nccc3occc23)ccc1-c1c(C)ncnc1N1Cc2cccnc2C1 [Example 183, formate salt] , what is it?
Result: 62.4 nM

Ask: What do you get for Cc1cc(Oc2nccc3occc23)ccc1-c1c(C)ncnc1N1CCC(CO)C1 (stereo not shown) [Example 179, formate salt] ?
Result: 47.2 nM

Ask: Proceed to Cc1cc(Oc2nccc3occc23)ccc1-c1c(C)ncnc1N1Cc2cn[nH]c2C1 [Example 96, trifluoroacetate salt]
Result: 24.5 nM

Ask: // repeat for c1cc2occc2c(Oc2ccc(-c3nccc4occc34)cc2)n1 and report
Result: 2240 nM

Ask: Next compound: Cc1cc(Oc2nccc3occc23)ccc1-c1cccc2cnn(C)c12
Result: 111 nM

Ask: How about Cc1cc(Oc2nccc3occc23)ccc1-c1c(C)ncnc1N(C)C [Example 87] ?
Result: 22.5 nM

Ask: // next record Cc1nc2cnccc2n1-c1ccc(Oc2nccc3occc23)cc1
Result: 316 nM

Ask: Entry to check: Cn1nccc1-c1ccc(Oc2nccc3sccc23)cc1
Result: 788 nM

Ask: # repeat for CCc1noc(COc2cc(Oc3nccc4occc34)ccc2-c2cccnc2C)n1
Result: 48.3 nM
